test.description: chemical genetic growth profiling, strain panel (AID 1159580);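 note: tested at 20 µM; growth read once vehicle control cultures reached saturation at 30 °C; 1 = growth at the plate median or of vehicle wells; lower values mean less growth of the strain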
condition.context: S. cerevisiae deletion strains, growth OD, locus YKL193C, strain SDS22, hits give low values
The campaign covered roughly 5,500 compounds. About 2,000 (36%) were called active. Another 18% or so got no clear call; they are omitted. The list shows a part of the results.
metric.name: normalized growth
API doc: respond with a numeric literal and nothing else, no unit.

Example entries begin here.
CCOC(=O)C1C(c2c(F)cccc2Cl)C(C(=O)OCC)C(O)(C(F)(F)F)NC1(O)C(F)(F)F (configuration not stated): 0.99
O=[N+]([O-])c1ccc(-c2noc(-c3ccno3)n2)o1: 0.0909

-- ask Find the measured normalized growth of `O=C(Nc1cccc(C(F)(F)F)c1)c1cncc(C#Cc2ccccc2)c1` and report it.
-- reply 0.982

-- ask Find the measured normalized growth of `N/C(Cn1ccc(C(F)(F)F)n1)=N/OS(=O)(=O)c1cccc(Cl)c1Cl` and report it.
-- reply 0.983

-- ask Find the measured normalized growth of CC(C)(C)c1ccc(C(=N)SC(C(=O)C(F)(F)F)c2ccccc2)cc1 (configuration not stated) and report it.
-- reply 0.986

-- ask Find the measured normalized growth of `O=C(Oc1cccc2[nH]ccc12)c1ccc(C(F)(F)F)cc1` and report it.
-- reply 0.964

-- ask Find the measured normalized growth of `Oc1c(Cl)cc(Cl)cc1C=Nc1nc(-c2ccc3ccccc3c2)cs1` and report it.
-- reply 0.953

-- ask Find the measured normalized growth of `N#C/C(=N/Nc1ccc(F)cc1)C(=O)c1ccccc1` and report it.
-- reply 0.873

-- ask Find the measured normalized growth of COc1ccc(C(CC(=O)c2ccccc2)Sc2ccccc2N)cc1OC (configuration not stated) and report it.
-- reply 0.979
